Overview of reported solubility across a group of compounds:
Assay: Solubility of the compound
Format: physicochemical
MEASURED ATTRIBUTE: solubility

>>> assay_result("O=C1CCC(N2Cc3c(OCc4ccc(C(=O)N5CCN(c6ccc(F)cc6F)CC5)cc4)cccc3C2=O)C(=O)N1 (stereo not given)")
"< 7 µg/mL"
>>> assay_result("O=C1CCC(N2Cc3c(OCc4ccc(CN5CCN(c6ccc(Cl)cc6Cl)CC5=O)cc4)cccc3C2=O)C(=O)N1 (stereo not given)")
"< 7 µg/mL"
>>> assay_result("O=C1CCC(N2Cc3c(OCc4ccc(C(=O)N5CCN(c6ccc(F)cc6)CC5)cc4)cccc3C2=O)C(=O)N1 (stereo not given)")
"< 7 µg/mL"
>>> assay_result("O=C1CCC(N2Cc3c(OCc4ccc(C(=O)N5CCN(c6ccc(Cl)cc6)CC5)cc4)cccc3C2=O)C(=O)N1 (stereo not given)")
"< 7 µg/mL"
>>> assay_result("O=C1CCC(N2Cc3c(OCc4ccc(C(=O)N5CCN(c6ccc(Cl)cc6Cl)CC5)cc4)cccc3C2=O)C(=O)N1 (stereo not given)")
"< 7 µg/mL"

###

Molecular target: Protein cereblon/Zinc finger protein Aiolos (Homo sapiens, UniProt Q96SW2+Q9UKT9)
Sequence (Q96SW2 whole entry, the tested form may be a part): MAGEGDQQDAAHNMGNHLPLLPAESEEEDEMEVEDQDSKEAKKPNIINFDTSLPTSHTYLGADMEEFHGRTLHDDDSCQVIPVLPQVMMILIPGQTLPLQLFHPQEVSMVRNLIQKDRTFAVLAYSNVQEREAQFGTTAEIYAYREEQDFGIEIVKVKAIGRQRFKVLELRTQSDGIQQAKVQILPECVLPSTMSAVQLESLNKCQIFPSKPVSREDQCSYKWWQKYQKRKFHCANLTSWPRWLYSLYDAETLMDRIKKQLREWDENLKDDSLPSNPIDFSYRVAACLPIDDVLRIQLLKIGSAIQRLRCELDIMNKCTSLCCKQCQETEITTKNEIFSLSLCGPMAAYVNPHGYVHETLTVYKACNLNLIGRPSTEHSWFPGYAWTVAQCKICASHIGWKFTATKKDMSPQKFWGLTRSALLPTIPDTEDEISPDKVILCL
Sequence (Q9UKT9 whole entry, the tested form may be a part): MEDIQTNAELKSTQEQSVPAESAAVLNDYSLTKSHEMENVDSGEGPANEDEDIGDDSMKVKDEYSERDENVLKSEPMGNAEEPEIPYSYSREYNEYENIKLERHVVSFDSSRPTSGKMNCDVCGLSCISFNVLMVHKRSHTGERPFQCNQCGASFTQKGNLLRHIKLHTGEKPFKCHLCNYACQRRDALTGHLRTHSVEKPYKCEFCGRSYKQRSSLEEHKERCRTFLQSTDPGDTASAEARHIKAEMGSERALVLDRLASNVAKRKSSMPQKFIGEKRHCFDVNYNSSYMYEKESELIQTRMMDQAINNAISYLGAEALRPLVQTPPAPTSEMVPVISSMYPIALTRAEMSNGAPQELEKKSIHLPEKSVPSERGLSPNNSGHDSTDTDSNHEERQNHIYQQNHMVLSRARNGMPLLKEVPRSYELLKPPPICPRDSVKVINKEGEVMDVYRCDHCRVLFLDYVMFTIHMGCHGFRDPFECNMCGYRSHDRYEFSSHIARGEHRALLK
Assay: Induction of CRBN-mediated pLOC-ePL-tagged aiolos (unknown origin) degradation in human DF15 cells assessed as minimum protein remaining incubated for 4 hrs by luminescence based beta-galactosidase enzyme fragmentation complementation assay
MEASURED ATTRIBUTE: EC50

>>> assay_result("CN1C(=O)CCC(N2Cc3c(OCc4ccc(CN5CCN(c6ccc(F)cc6F)CC5)cc4)cccc3C2=O)C1=O (centres undefined)")
"> 10000 nM"
>>> assay_result("C[C@]1(N2Cc3c(OCc4ccc(CN5CCN(c6ccc(F)cc6F)CC5)cc4)cccc3C2=O)CCC(=O)NC1=O")
"> 10 nM"
>>> assay_result("O=C1CCC(N2Cc3c(OCc4ccc(CN5CCN(c6ccc(F)cn6)CC5)cc4)cccc3C2=O)C(=O)N1 (centres undefined)")
"0.7 nM"
>>> assay_result("C[C@@]1(N2Cc3c(OCc4ccc(CN5CCN(c6ccc(F)cc6F)CC5)cc4)cccc3C2=O)CCC(=O)NC1=O")
"> 100 nM"

###

Test: Antiproliferative activity against lenalidomide-resistant human H929-R10-1 cells incubated for 5 days by CellTiter-Glo assay
Format: functional
Conditions: 120 h
pIC50: −log10 of the molar value.
MEASURED ATTRIBUTE: pIC50

>>> assay_result("O=C1CCC(N2C(=O)c3cccc(OCc4ccc(CN5CCN(c6ccc(F)cc6F)CC5)cc4)c3C2=O)C(=O)N1 (centres undefined)")
6.80
>>> assay_result("O=C1CCC(N2Cc3c(OCc4ccc(CN5CCC(C(F)(F)F)CC5)cc4)cccc3C2=O)C(=O)N1 (centres undefined)")
8.08
>>> assay_result("O=C1CCC(N2Cc3c(OCc4ccc(C(=O)N5CCN(c6ccc(Cl)cc6Cl)CC5)cc4)cccc3C2=O)C(=O)N1 (centres undefined)")
8.48
>>> assay_result("O=C1CCC(N2Cc3c(OCc4ccc(CN5CCN(c6ccc(F)cc6)CC5)cc4)cccc3C2=O)C(=O)N1 (centres undefined)")
8.55

###

Biological target: Protein cereblon/Zinc finger protein Aiolos (Homo sapiens, UniProt Q96SW2+Q9UKT9)
Experiment: Induction of CRBN-mediated pLOC-ePL-tagged aiolos (unknown origin) degradation in human DF15 cells assessed as minimum protein remaining incubated for 4 hrs by luminescence based beta-galactosidase enzyme fragmentation complementation assay
pEC50: −log10 of the molar value.
MEASURED ATTRIBUTE: pEC50

>>> assay_result("O=C1CCC(N2Cc3c(NCc4ccc(CN5CCN(c6ccc(F)cc6F)CC5)cc4)cccc3C2=O)C(=O)N1 (stereo unspecified)")
8.82
>>> assay_result("O=C1CCC(N2Cc3c(OCc4ccc(CN5CCN(c6ccc(F)cc6F)CC5)cc4)cccc3C2=O)C(=O)N1 (racemic)")
10.00
>>> assay_result("O=C1CC[C@H](N2Cc3c(OCc4ccc(CN5CCN(c6ccc(F)cc6F)CC5)cc4)cccc3C2=O)C(=O)N1")
10.00
>>> assay_result("O=C1CCC(N2Cc3c(OCc4ccc(CN5CCN(c6ccccc6)CC5)cc4)cccc3C2=O)C(=O)N1 (stereo unspecified)")
10.00
>>> assay_result("O=C1CCC(N2Cc3c(OCc4ccc(CN5CCN(c6c(F)cccc6F)CC5)cc4)cccc3C2=O)C(=O)N1 (stereo unspecified)")
9.52
>>> assay_result("O=C1CCC(N2Cc3c(OCc4ccc(C(=O)N5CCN(c6ccc(Cl)cc6)CC5)cc4)cccc3C2=O)C(=O)N1 (stereo unspecified)")
10.00
